Hello, the source for this data is patent US20240182536A1, in case you need it.

Please go through the items and note down their HEK-Blue activity, +100 nM BP, DF-10000.
# system name: T1, interleukin 18 binding protein (IL-18BP) (UniProt O95998 31-194); note: unit not given here
# T1 sequence (looked up): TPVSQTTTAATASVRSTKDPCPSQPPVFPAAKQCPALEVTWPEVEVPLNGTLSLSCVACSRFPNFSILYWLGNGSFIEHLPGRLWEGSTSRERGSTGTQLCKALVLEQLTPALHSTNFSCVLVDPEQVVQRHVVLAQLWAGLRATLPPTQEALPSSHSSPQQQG
# method: cell-based or functional assay
Answers are plain numbers.

binder: IL-18 variant K53H, S55R (ligand) YFGKLESKLSVIRNLNDQVLFIDQGNRPLFEDMTDSDMRDNAPRTIFIISMYHDRQPRGMAVTISVKSEKISTLSSENKIISFKEMNPPDNIKDTKSDIIFFQRSVPGHDNKMQFESSSYEGYFLASEKERDLFKLILKKEDELGDRSIMFTVQNED
HEK-Blue activity, +100 nM BP, DF-10000: 0.12

Name the reported HEK-Blue activity, +100 nM BP, DF-10000 value associated with the binder IL-18 variant K8R, L9G, S10C, K53G, S55A, R104G (ligand) YFGKLESRGCVIRNLNDQVLFIDQGNRPLFEDMTDSDMRDNAPRTIFIISMYGDAQPRGMAVTISVKSEKISTLSSENKIISFKEMNPPDNIKDTKSDIIFFQGSVPGHDNKMQFESSSYEGYFLASEKERDLFKLILKKEDELGDRSIMFTVQNED 0.12
